Biological target: Full-length glucokinase (beta cell isoform) (Homo sapiens, UniProt P35557)
Construct: Full-length glucokinase (beta cell isoform) was His-tagged at N-terminus; His tag (N); made in house
Sequence (P35557 whole entry, species assumed, canonical isoform): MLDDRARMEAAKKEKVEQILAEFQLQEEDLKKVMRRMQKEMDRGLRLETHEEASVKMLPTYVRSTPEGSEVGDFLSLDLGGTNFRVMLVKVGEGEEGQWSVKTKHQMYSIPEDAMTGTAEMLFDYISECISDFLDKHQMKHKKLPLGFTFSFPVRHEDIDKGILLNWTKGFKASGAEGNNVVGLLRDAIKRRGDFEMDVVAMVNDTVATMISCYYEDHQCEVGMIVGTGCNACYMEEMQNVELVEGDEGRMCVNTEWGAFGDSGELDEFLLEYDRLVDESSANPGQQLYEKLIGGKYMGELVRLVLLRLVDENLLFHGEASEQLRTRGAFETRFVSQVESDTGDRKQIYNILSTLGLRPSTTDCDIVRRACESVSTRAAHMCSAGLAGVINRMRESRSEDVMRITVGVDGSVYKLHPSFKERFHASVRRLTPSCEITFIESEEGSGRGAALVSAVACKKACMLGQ
Assay: Glucokinase biochemical assay (PK/LDH-coupled, NADH depletion at 340 nm): % activation, EC50, % max activation
Conditions: 5 mM glucose; GK activation; read-out: EC50
Decide using EC50 alone. Strictly below 200 nM: fulfilled. Equal to or above 200 nM: not fulfilled.

hey, is EC50 for Cc1nc(COc2cc(C(=O)Nc3ccn(C)n3)cc3c2CC(C)(C)O3)cs1 [Example 90] lower than 200 nM or not? not fulfilled

---

Molecular target: Full-length glucokinase (beta cell isoform) (Homo sapiens, UniProt P35557)
Construct: Full-length glucokinase (beta cell isoform) was His-tagged at N-terminus; His tag (N); made in house
Test: Glucokinase biochemical assay (PK/LDH-coupled, NADH depletion at 340 nm): % activation, EC50, % max activation
Settings: 10 uM compound; 5 mM glucose; % Activation=(Va/Vo−1)×100; read-out: % Activation at 10 uM
molecules and their reported activation at 10 µM
Include the unit after the number when you answer.

Some entries whose results are on file:
| MOLECULE | RESULT VALUE |
| --- | --- |
| Cn1ncc(NC(=O)c2cc(Oc3ccc(S(C)(=O)=O)cc3Cl)c3c(c2)OC(C)(C)C3)n1 [Example 119] | 242% |
| Cc1ccc(NC(=O)c2cc(Oc3ccc(C(=O)N(C)C)c(F)c3)c3ccoc3c2)nc1 [Example 342] | 15% |
| Cn1ccc(NC(=O)c2cc(Oc3cc(F)c(C(=O)N4CCC4)c(F)c3)c3c(c2)OC(C(F)F)C3)n1 (stereo not shown) [Example 223] | 112% |

Read the next record carefully.
Just so you know, measured activation at 10 µM for Cn1ccc(NC(=O)c2cc(OCCCC#N)c3c(c2)OC(C)(C)C3)n1 [Example 93] came out at 95.2%

---

Target: Full-length glucokinase (beta cell isoform) (Homo sapiens, UniProt P35557)
Construct: Full-length glucokinase (beta cell isoform) was His-tagged at N-terminus; His tag (N); made in house
Assay: Glucokinase biochemical assay (PK/LDH-coupled, NADH depletion at 340 nm): % activation, EC50, % max activation
Settings: 5 mM glucose; fitted maximum activation; read-out: % Max Activation
METRIC: Emax (%)
State the answer as a number, implicitly in %.

| MOL SMILES | UNIT OF MEASURE | Emax |
| --- | --- | --- |
| CN(C)C(=O)c1ccc(Oc2cc(C(=O)Nc3ccn(C)n3)cc3c2CC(C)(C)O3)cc1Cl | % | 107 |
| Cn1ccc(NC(=O)c2cc(Oc3ccc(-c4ncon4)c(F)c3)c3c(c2)OC(C)(C)C3)n1 | % | 227 |

Just so you know, measured Emax for Cn1ccc(NC(=O)c2cc(Oc3ccc(C(=O)N4CC[C@H](F)C4)c(F)c3)c3c(c2)OC(C)(C)C3)n1 came out at 158

Just so you know, measured Emax for Cn1ccc(NC(=O)c2cc(Oc3ccc(C(=O)NC4CC4)c(F)c3)c3c(c2)OC(C)(C)C3)n1 came out at 232

---

compounds and their reported activation at 10 µM
Target: Full-length glucokinase (beta cell isoform) (Homo sapiens)
Construct: Full-length glucokinase (beta cell isoform) was His-tagged at N-terminus; His tag (N); made in house
Assay: Glucokinase biochemical assay (PK/LDH-coupled, NADH depletion at 340 nm): % activation, EC50, % max activation
Conditions: 10 uM compound; 5 mM glucose; % Activation=(Va/Vo−1)×100; read-out: % Activation at 10 uM
State the answer as a number, implicitly in %.

| COMPOUND | SYSTEM | RESULT VALUE |
| --- | --- | --- |
| COCC1(C)Cc2c(Oc3ccc(C(=O)N4CCC4)c(F)c3)cc(C(=O)Nc3ccn(C)n3)cc2O1 (single isomer, unassigned; (-)) [Example 243] | Full-length glucokinase (beta cell isoform) (Homo sapiens) | 275 |
| Cc1ccc(NC(=O)c2cc(Oc3ccc(C(=O)N(C)C)nc3)c3cc(C)oc3c2)nc1 | Full-length glucokinase (beta cell isoform) (Homo sapiens) | 34.2 |
| CCNC(=O)c1ncc(Oc2cc(C(=O)Nc3ccn(C)n3)cc3c2CC(C)(C)O3)cc1NCC | Full-length glucokinase (beta cell isoform) (Homo sapiens) | 233 |
| Cn1ccc(NC(=O)c2cc(Oc3ccc(C#N)cc3F)c3c(c2)OC(C)(C)C3)n1 | Full-length glucokinase (beta cell isoform) (Homo sapiens) | 135 |
| CC1(C)Cc2c(Oc3ccc(S(C)(=O)=O)cc3)cc(C(=O)Nc3ccc(CO)cn3)cc2O1 | Full-length glucokinase (beta cell isoform) (Homo sapiens) | 118 |

The observed activation at 10 µM for Cc1ccc(NC(=O)c2cc(Oc3ccc(C(=O)N(C)C)cc3)c3oc(C)nc3c2)nc1 when tested with Full-length glucokinase (beta cell isoform) (Homo sapiens) stands at 14.9

The observed activation at 10 µM for CCc1cc2c(Oc3ccc(S(C)(=O)=O)cc3)cc(C(=O)Nc3ccn(C)n3)cc2o1 when tested with Full-length glucokinase (beta cell isoform) (Homo sapiens) stands at 211

---

Target: Full-length glucokinase (beta cell isoform) (Homo sapiens)
Construct: Full-length glucokinase (beta cell isoform) was His-tagged at N-terminus; His tag (N); made in house
Test: Glucokinase biochemical assay (PK/LDH-coupled, NADH depletion at 340 nm): % activation, EC50, % max activation
Conditions: 5 mM glucose; fitted maximum activation; read-out: % Max Activation
compounds and their reported Emax
State the answer as a number, implicitly in %.

| COMPOUND | UNIT OF MEASURE | Emax |
| --- | --- | --- |
| Cc1cc2c(Oc3ccc(S(=O)(=O)N(C)C)c(F)c3)cc(C(=O)Nc3cnn(C)n3)cc2o1 [Example 306] | % | 186 |
| Cc1cc2c(Oc3ccc(S(C)(=O)=O)cc3)cc(C(=O)Nc3cnn(C)n3)cc2o1 [Example 267] | % | 165 |
| CC1(C)Cc2c(Oc3ccc(S(C)(=O)=O)cc3)cc(C(=O)Nc3ccccn3)cc2O1 [Example 19] | % | 156 |
| COc1cnc(NC(=O)c2cc(Oc3ccc(C(=O)N(C)C)nc3)c3cc(C)oc3c2)cn1 [Example 279] | % | 105 |
| CN(C)C(=O)c1cc2c(Oc3ccc(S(C)(=O)=O)cc3)cc(C(=O)Nc3cnn(C)n3)cc2o1 [Example 288] | % | 188 |

Just so you know, measured Emax for Cc1ccc(NC(=O)c2cc(Oc3ccc(S(C)(=O)=O)cc3)c3cc(CN(C)C)oc3c2)nc1 [Example 319] came out at 90

Just so you know, measured Emax for CNC(=O)c1ccc(Oc2cc(C(=O)Nc3cnn(C)n3)cc3c2CC(C)(C)O3)cn1 [Example 170] came out at 255

Just so you know, measured Emax for CNC(=O)c1ncc(Oc2cc(C(=O)Nc3ccn(C)n3)cc3c2CC(C)(C)O3)cn1 [Example 171] came out at 213

Just so you know, measured Emax for CCNC(=O)c1ccc(Oc2cc(C(=O)Nc3ccn(C)n3)cc3c2CC(C)(C)O3)cn1 [Example 168] came out at 184

Just so you know, measured Emax for Cc1ccc(NC(=O)c2cc(Oc3ccc(C(=O)N(C)C)cc3)c3c(c2)OC(C)(C)C3)nc1 [Example 150] came out at 55

Just so you know, measured Emax for COCCNC(=O)c1ccc(Oc2cc(C(=O)Nc3ccn(C)n3)cc3c2CC(C)(C)O3)cc1F [Example 68] came out at 175

Just so you know, measured Emax for Cc1ccc(C(=O)COc2cc(C(=O)Nc3ccn(C)n3)cc3c2CC(C)(C)O3)cn1 [Example 103] came out at 94

Just so you know, measured Emax for Cc1ccc(NC(=O)c2cc(Oc3ccc(C(F)F)cc3)c3cc(C(=O)N(C)C)oc3c2)nc1 [Example 323] came out at 83

Just so you know, measured Emax for COc1cnc(NC(=O)c2cc(Oc3ccc(S(=O)(=O)N(C)C)c(F)c3)c3cc(C)oc3c2)cn1 [Example 307] came out at 156

Just so you know, measured Emax for Cc1cc2c(Oc3ccc(S(C)(=O)=O)cc3)cc(C(=O)Nc3ccn(C)n3)cc2o1 [Example 271] came out at 184

Just so you know, measured Emax for CN(CCO)C(=O)c1ccc(Oc2cc(C(=O)Nc3ccn(C)n3)cc3c2CC(C)(C)O3)cc1F [Example 66] came out at 168

---

Molecular target: Full-length glucokinase (beta cell isoform) (Homo sapiens, UniProt P35557)
Construct: Full-length glucokinase (beta cell isoform) was His-tagged at N-terminus; His tag (N); made in house
Assay: Glucokinase biochemical assay (PK/LDH-coupled, NADH depletion at 340 nm): % activation, EC50, % max activation
Details: 10 uM compound; 5 mM glucose; % Activation=(Va/Vo−1)×100; read-out: % Activation at 10 uM
molecules and their reported activation at 10 µM
State the answer as a number, implicitly in %.

Just so you know, measured activation at 10 µM for Cc1noc(COc2cc(C(=O)Nc3ccn(C)n3)cc3c2CC(C)(C)O3)n1 came out at 116

Just so you know, measured activation at 10 µM for CN(C)C(=O)c1ccc(Oc2cc(C(=O)Nc3cnn(C)n3)cc3c2CC(C)(C)O3)cc1F came out at 145

Just so you know, measured activation at 10 µM for CN(C)C(=O)c1ccc(Oc2cc(C(=O)Nc3cnccn3)cc3c2CC(C)(C)O3)cc1 came out at 98.1
